Origin of the recorded values: ChEMBL document CHEMBL2417437

Entries and their pIC50 values follow.
- Assayed system: Phosphatidylinositol 4,5-bisphosphate 3-kinase catalytic subunit delta isoform (Homo sapiens)
- Sequence (O00329 whole entry): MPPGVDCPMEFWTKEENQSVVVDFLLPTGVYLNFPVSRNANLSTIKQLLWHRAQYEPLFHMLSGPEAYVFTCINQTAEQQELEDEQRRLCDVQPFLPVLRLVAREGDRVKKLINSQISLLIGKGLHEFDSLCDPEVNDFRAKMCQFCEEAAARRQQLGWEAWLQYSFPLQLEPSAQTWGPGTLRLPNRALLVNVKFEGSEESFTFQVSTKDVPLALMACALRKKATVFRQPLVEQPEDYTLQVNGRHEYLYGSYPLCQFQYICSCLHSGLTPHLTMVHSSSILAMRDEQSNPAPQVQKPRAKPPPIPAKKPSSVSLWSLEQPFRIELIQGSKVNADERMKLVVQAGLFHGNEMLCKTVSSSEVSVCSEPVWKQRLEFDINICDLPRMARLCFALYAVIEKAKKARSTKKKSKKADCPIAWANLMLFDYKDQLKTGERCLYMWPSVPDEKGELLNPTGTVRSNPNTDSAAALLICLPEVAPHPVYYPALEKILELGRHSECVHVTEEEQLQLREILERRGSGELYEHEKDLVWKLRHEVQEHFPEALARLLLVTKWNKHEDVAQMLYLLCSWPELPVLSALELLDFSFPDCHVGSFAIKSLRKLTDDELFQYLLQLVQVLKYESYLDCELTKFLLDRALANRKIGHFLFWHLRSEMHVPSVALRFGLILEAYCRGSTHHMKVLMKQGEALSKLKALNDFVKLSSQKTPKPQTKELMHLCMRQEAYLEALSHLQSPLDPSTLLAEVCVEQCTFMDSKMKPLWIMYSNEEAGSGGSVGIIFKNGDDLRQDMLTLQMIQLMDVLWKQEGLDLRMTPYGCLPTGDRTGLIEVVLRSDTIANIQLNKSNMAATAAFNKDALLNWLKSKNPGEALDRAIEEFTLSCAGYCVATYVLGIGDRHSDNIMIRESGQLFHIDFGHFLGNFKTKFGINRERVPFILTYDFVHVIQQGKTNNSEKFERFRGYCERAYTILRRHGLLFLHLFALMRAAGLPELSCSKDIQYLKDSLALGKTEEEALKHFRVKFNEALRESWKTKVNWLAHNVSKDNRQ
- Protocol: Displacement of TAMRA-PIP3 from PI3Kdelta GRP-1 pleckstrin homology domain (unknown origin) assessed as formation of 3,4,5-inositoltriphosphate after 30 mins by fluorescence polarization assay
# reply with the number alone; pIC50 is -log10 of concentration in mol/L

# Smiles str, pIC50
measured = [
    ("CCNC(=O)Nc1ccc(-c2nc(N3CCCOCC3)c3c(ncn3C)n2)cc1", 5.14),
]

Then this compound:
Which value of pIC50 has been reported for CCNC(=O)Nc1ccc(-c2nc(N3CCOC[C@H]3C)c3c(ncn3C)n2)cc1 in the records? 5.40
